- Assayed System: KRas Q61H (Homo sapiens, UniProt P01116, Q61H)
- Construct: Biotinylated KRas (corresponding to amino acids 1-169, produced at Accelegan Inc.); biotin (biotinylated); purchased Accelegan Inc
- Sequence (P01116 1-169 isoform P01116-2 Q61H): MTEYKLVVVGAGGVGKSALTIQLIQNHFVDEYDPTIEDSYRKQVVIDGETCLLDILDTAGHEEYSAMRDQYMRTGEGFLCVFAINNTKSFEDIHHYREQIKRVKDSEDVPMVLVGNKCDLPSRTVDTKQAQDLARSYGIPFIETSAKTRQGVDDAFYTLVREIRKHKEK
- Protocol Description: KRas binding assay (TR-FRET displacement);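 also: TR-FRET signal read after one hour at room temperature, IC50 derived by four-parameter fitting of percent-of-control values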
Categorize each record by its IC50 using 1 = under 3000 nM, 2 = from 3000 nM up to 10000 nM, 3 = 10000 nM and over

Asked: Class? Entry: O=S1(=O)NCC2(CCCN(c3nc(OCC45CCCN4CCC5)nc4c(F)c(-c5cccc6cccc(F)c56)ncc34)C2)N1 (centres unmarked) [Example 252]
Given back: 1

###

- Assayed System: KRas G12D (Homo sapiens, UniProt P01116, G12D);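 also: TR-FRET displacement binding assay on KRas, read after a one-hour incubation at room temperature, IC50 fitted from percent-of-control values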
- Sequence (P01116 1-169 isoform P01116-2 G12D): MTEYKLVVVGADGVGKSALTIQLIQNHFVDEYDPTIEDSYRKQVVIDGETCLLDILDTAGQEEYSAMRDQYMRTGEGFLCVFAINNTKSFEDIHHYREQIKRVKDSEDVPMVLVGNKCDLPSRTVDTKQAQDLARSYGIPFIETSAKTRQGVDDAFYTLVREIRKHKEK
- Protocol Description: biochemical
Overview of recorded pIC50 for various compounds
Field pIC50 (float): negative decimal logarithm of the concentration in molar.

Compound	pIC50
CCc1c(F)ccc2cc(O)cc(-c3ncc4c(N5C[C@@H]6C(CO)NC(=O)[C@@H]6C5)nc(OC[C@@]56CCCN5C[C@H](F)C6)nc4c3F)c12 (stereo in doubt) [Example 488]	7.66

Asked: For CCc1c(F)ccc2cc(O)cc(-c3ncc4c(N5CCC(F)(F)C(O)C5)nc(OC[C@@]56CCCN5C[C@H](F)C6)nc4c3F)c12 (some centres unmarked) [Example 191] , what is its reported pIC50?
Given back: 8.05

Asked: For Fc1c(-c2cccc3cccc(F)c23)ncc2c(NCc3ccc4[nH]cnc4c3)nc(OCC34CCCN3CCC4)nc12 [Example 80] , what is its reported pIC50?
Given back: 4.53

Asked: For CCc1cccc2cccc(-c3ncc4c(NCc5cccnc5N)nc(OCC56CCCN5CCC6)nc4c3F)c12 [Example 204] , what is its reported pIC50?
Given back: 5.89

Asked: For CCc1c(F)ccc2cc(O)cc(-c3ncc4c(N5CCC[C@@](C)(O)C5)nc(OC[C@@H]5CCCN5C)nc4c3F)c12 [Example 28] , what is its reported pIC50?
Given back: 8.52

Asked: For CNc1cc2n(n1)CCCN(c1nc(OCC34CCCN3CCC4)nc3c(F)c(-c4cccc5cccc(F)c45)ncc13)C2 [Example 263] , what is its reported pIC50?
Given back: 5.70
